// data source = patent US20170022281A1

Target: T1, human PRLR (Biacore antigen) (human, UniProt P16471 25-234, limits assumed)
T1 construct: The construct injected over captured antibody is not described (a soluble form is likely); also called huPRLR
T1 sequence: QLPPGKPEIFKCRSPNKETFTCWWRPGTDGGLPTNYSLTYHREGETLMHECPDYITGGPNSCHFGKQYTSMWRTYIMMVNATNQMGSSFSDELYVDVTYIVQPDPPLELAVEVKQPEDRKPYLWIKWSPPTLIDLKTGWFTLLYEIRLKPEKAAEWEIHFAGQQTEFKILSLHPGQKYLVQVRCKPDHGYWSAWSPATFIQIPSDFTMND
Assay: SPR simultaneous binding; PRLR held by surface mAb chAb8
Assignment: determine reported solution mAb binding, % of PRLR binding for the given binders.
Please state the figure in %; there is no need to write the unit.

Entry chAb8 (antibody, human IgG1, kappa, V domains shown, chimeric, murine variable and human G1/kappa constant regions) VH: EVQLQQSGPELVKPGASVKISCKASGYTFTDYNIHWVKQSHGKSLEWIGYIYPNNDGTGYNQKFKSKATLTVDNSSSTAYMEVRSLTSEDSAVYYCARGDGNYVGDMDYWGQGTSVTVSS VL: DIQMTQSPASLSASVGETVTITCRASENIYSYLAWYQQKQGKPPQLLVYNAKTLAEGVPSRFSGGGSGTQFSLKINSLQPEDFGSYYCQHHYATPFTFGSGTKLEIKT : reported solution mAb binding, % of PRLR binding = ? -1

Entry Ab21 (antibody, human IgG1, kappa, V domains shown, humanized from Ab6; G1; also called Ab1 HC.1a and Ab1 LC.2a) VH: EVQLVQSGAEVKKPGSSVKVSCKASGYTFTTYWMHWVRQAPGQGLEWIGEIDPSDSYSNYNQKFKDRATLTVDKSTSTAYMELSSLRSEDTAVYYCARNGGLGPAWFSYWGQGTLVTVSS VL: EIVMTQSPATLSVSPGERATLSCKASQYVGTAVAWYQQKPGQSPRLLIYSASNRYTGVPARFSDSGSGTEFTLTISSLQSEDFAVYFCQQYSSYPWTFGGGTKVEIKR : reported solution mAb binding, % of PRLR binding = ? 0

Entry chAb6 (antibody, human IgG1, kappa, V domains shown, chimeric, murine variable and human G1/kappa constant regions) VH: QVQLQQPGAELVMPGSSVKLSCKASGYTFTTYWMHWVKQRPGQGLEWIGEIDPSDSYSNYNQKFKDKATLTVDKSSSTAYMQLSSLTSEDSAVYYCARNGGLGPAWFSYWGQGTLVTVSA VL: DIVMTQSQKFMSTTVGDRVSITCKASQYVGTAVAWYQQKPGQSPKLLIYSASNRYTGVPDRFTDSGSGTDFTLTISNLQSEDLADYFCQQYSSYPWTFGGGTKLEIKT : reported solution mAb binding, % of PRLR binding = ? 0

Entry LFA102 (antibody, human IgG1, kappa, V domains shown, humanized IgG1 kappa comparator (WO 2008022295)) VH: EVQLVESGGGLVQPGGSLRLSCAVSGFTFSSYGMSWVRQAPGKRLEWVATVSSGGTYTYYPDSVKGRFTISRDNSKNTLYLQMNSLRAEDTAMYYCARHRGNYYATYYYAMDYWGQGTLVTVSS VL: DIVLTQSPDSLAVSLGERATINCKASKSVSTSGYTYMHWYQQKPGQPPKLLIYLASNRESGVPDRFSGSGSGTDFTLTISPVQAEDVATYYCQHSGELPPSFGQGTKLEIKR : reported solution mAb binding, % of PRLR binding = ? 1

Entry Ab49 (antibody, human IgG1, kappa, V domains shown, humanized from Ab8; G1; also called Ab3 HC.1a and Ab3 LC.1b) VH: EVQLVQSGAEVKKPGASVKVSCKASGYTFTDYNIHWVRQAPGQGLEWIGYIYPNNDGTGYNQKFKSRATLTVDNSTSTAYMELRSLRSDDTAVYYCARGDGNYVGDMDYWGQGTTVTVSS VL: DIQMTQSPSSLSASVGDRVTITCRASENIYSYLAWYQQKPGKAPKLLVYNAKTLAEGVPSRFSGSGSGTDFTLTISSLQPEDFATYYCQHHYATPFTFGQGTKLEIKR : reported solution mAb binding, % of PRLR binding = ? -1
